Task for the reader: assign each of the following compounds its reported D50.
# condition: particle size distribution after micronisation
Where a name gives a salt, the structure may show the parent alone.
Numbers only, in μm.

Worked cases, answers included:
>  <compound>
C#CCN[C@@H]1CCc2ccccc21 [Example 27, Rasagiline mesylate]

>  <experimental.readout>
D50

>  <numeric.result>
2.285

$$$$
>  <compound>
C#CCN[C@@H]1CCc2ccccc21 [Example 32, Rasagiline mesylate]

>  <experimental.readout>
D50

>  <numeric.result>
3.093

$$$$
>  <compound>
C#CCN[C@@H]1CCc2ccccc21 [Example 28, Rasagiline mesylate]

>  <experimental.readout>
D50

>  <numeric.result>
1.592

$$$$
>  <compound>
C#CCN[C@@H]1CCc2ccccc21 [Example 30, Rasagiline mesylate]

>  <experimental.readout>
D50

>  <numeric.result>
2.346

$$$$

Now let's try a different one.
Ask | Reported D50, compound C#CCN[C@@H]1CCc2ccccc21 [Example 31, Rasagiline mesylate] : ____
Reply | 146.957
